Test system: CCRIS mutagenicity, Ames/micronucleus/aberration tests
protocol-summary: CCRIS mutagenicity studies
particulars: Test System: UDS RAT HEPATOCYTES; Strain/Indicator: THY INCORP; Metabolic Activation: NONE; Method: LIQUID SCINTILLATION COUNTING
Calls of active or inactive are those of the source. How the calls were made is not given here.
Hello, when you answer, please use one of the following outcomes: active, inactive

// below: answered compounds
| structure-as-smiles | discrete-label |
| --- | --- |
| C=CCc1cc(OC)c2c(c1)OCO2 | inactive |
| C/C=C/c1cc(OC)c(OC)cc1OC | active |

# input Called result for `CC/C(=C(/CC)c1ccc(O)cc1)c1ccc(O)cc1`
# output inactive

# input # fetch the recorded call for `Cc1ccccc1N` here
# output active

# input Dear colleague, could you share the recorded outcome for `Cc1c(N)nc(C)c2c1[nH]c1ccccc12` when you have a moment?
# output inactive

# input # lookup: test call for `COc1cc2c(c3oc(=O)c4c(c13)CCC4=O)[C@@H]1C=CO[C@@H]1O2`
# output active
